# Lookup of reported MIC90 keyed by entry
system: Streptococcus pneumoniae; assay: MIC by E-test (broth microdilution for gemifloxacin), 107 pneumococcal carrier isolates, Athens 1998; type: cell-based; details: Streptococcus pneumoniae, Penicillin-susceptible S. pneumoniae (n = 107), E-test; read-out: MIC90
Numeric only. Scale: µg/mL

[[record]]
molecule = "CO/N=C1\\CN(c2nc3c(cc2F)c(=O)c(C(=O)O)cn3C2CC2)CC1CN (racemic) [Gemifloxacin]"
assayed_target = "Streptococcus pneumoniae"
data_value = 0.064

[[record]]
molecule = "N[C@@H]1[C@H]2CN(c3nc4c(cc3F)c(=O)c(C(=O)O)cn4-c3ccc(F)cc3F)C[C@@H]12 [Trovafloxacin, trovafloxacin]"
assayed_target = "Streptococcus pneumoniae"
data_value = 0.19

[[record]]
molecule = "CC[C@H]1OC(=O)[C@H](C)[C@@H](O[C@H]2C[C@@](C)(OC)[C@@H](O)[C@H](C)O2)[C@H](C)[C@@H](O[C@@H]2O[C@H](C)C[C@H](N(C)C)[C@H]2O)[C@](C)(O)C[C@@H](C)CN(C)[C@H](C)[C@@H](O)[C@]1(C)O [Azithromycin, azithromycin]"
assayed_target = "Streptococcus pneumoniae"
data_value = 3

[[record]]
molecule = "Cc1c(F)c(N2CCNC(C)C2)cc2c1c(=O)c(C(=O)O)cn2C1CC1 (stereo not drawn) [Grepafloxacin, grepafloxacin]"
assayed_target = "Streptococcus pneumoniae"
data_value = 0.38


Supply MIC90 value. Item: CC1COc2c(N3CCN(C)CC3)c(F)cc3c(=O)c(C(=O)O)cn1c23 (stereo not drawn) [Ofloxacin, ofloxacin] 4

State its MIC90 for this molecule: CC[C@H]1OC(=O)[C@H](C)[C@@H](O[C@H]2C[C@@](C)(OC)[C@@H](O)[C@H](C)O2)[C@H](C)[C@@H](O[C@@H]2O[C@H](C)C[C@H](N(C)C)[C@H]2O)[C@](C)(OC)C[C@@H](C)C(=O)[C@H](C)[C@@H](O)[C@]1(C)O [Clarithromycin] 0.38
